- Study Target: human PD-1 (wild-type), expressed on cells (human, UniProt Q15116 25-288)
- Sequence (Q15116 25-288 limits assumed): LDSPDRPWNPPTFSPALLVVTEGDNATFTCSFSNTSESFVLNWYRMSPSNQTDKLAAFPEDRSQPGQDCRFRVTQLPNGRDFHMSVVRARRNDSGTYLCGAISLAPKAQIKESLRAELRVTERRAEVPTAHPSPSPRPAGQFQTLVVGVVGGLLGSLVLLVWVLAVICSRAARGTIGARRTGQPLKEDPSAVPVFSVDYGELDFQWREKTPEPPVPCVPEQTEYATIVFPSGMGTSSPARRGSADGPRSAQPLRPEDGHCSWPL
- Method Summary: cell-based or functional assay
The binders listed here are annotated with their Cell-cell contact assay.
Assay Metric: Cell-cell contact assay (ng/mL)

>  <Binder>
HM297-E6 (antibody, human IgG1, V domains shown, also called humanized HM297, VH ver.E / VL ver.6) VH: QVQLVQSGPELVKPGASVKIPCKASGYTFTDYNVDWVRQSHGKSLEWIGDIDPNNGGTIYNQKFKDKATLTVDKSTRTAYMELRSLRSDDTAVYYCARWRGAMDYWGQGTLVTVSS VL: DIQMTQSPSSLSASVGDRVTITCRASQDIDNYLKWYQQKPGKAPKLLIYDTSRLHSGVPSRFSGSGSGTDYTLTISSLQPEDFATYYCQQGYTLPWTFGQGTKLEIK

>  <Test Value>
65.4

$$$$
>  <Binder>
HM297-F6 (antibody, human IgG1, V domains shown, also called humanized HM297, VH ver.F / VL ver.6) VH: QVQLVQSGPEVKKPGASVKIPCKASGYTFTDYNVDWVRQSHGKSLEWIGDIDPNNGGTIYNQKFKDRVTMTVDKSTRTAYMELRSLRSDDTAVYYCARWRGAMDYWGQGTLVTVSS VL: DIQMTQSPSSLSASVGDRVTITCRASQDIDNYLKWYQQKPGKAPKLLIYDTSRLHSGVPSRFSGSGSGTDYTLTISSLQPEDFATYYCQQGYTLPWTFGQGTKLEIK

>  <Test Value>
150

$$$$
>  <Binder>
HM297-H6 (antibody, human IgG1, V domains shown, also called humanized HM297, VH ver.H / VL ver.6) VH: QVQLVQSGPEVKKPGASVKIPCKASGYTFTDYNVDWVRQVPGQGLEWMGDIDPNNGGTIYNQKFKDRVTMTVDKSTRTAYMELRSLRSDDTAVYYCARWRGAMDYWGQGTLVTVSS VL: DIQMTQSPSSLSASVGDRVTITCRASQDIDNYLKWYQQKPGKAPKLLIYDTSRLHSGVPSRFSGSGSGTDYTLTISSLQPEDFATYYCQQGYTLPWTFGQGTKLEIK

>  <Test Value>
141

$$$$
>  <Binder>
HM297-H4 (antibody, human IgG1, V domains shown, also called humanized HM297, VH ver.H / VL ver.4) VH: QVQLVQSGPEVKKPGASVKIPCKASGYTFTDYNVDWVRQVPGQGLEWMGDIDPNNGGTIYNQKFKDRVTMTVDKSTRTAYMELRSLRSDDTAVYYCARWRGAMDYWGQGTLVTVSS VL: DIQMTQTTSSLSASVGDRVTITCRASQDIDNYLKWYQQKPDGTVKLLIYDTSRLHSGVPSRFSGSGSGTDYTLTISSLKQEDFATYYCQQGYTLPWTFGQGTKLEIK

>  <Test Value>
185

$$$$
>  <Binder>
HM297-G6 (antibody, human IgG1, V domains shown, also called humanized HM297, VH ver.G / VL ver.6) VH: QVQLVQSGPEVKKPGASVKIPCKASGYTFTDYNVDWVRQVPGQGLEWIGDIDPNNGGTIYNQKFKDKATLTVDKSTRTAYMELRSLRSDDTAVYYCARWRGAMDYWGQGTLVTVSS VL: DIQMTQSPSSLSASVGDRVTITCRASQDIDNYLKWYQQKPGKAPKLLIYDTSRLHSGVPSRFSGSGSGTDYTLTISSLQPEDFATYYCQQGYTLPWTFGQGTKLEIK

>  <Test Value>
59.7

$$$$
